target desc: Sodium-dependent serotonin transporter (Rattus norvegicus, UniProt P31652)
Sequence (P31652 whole entry): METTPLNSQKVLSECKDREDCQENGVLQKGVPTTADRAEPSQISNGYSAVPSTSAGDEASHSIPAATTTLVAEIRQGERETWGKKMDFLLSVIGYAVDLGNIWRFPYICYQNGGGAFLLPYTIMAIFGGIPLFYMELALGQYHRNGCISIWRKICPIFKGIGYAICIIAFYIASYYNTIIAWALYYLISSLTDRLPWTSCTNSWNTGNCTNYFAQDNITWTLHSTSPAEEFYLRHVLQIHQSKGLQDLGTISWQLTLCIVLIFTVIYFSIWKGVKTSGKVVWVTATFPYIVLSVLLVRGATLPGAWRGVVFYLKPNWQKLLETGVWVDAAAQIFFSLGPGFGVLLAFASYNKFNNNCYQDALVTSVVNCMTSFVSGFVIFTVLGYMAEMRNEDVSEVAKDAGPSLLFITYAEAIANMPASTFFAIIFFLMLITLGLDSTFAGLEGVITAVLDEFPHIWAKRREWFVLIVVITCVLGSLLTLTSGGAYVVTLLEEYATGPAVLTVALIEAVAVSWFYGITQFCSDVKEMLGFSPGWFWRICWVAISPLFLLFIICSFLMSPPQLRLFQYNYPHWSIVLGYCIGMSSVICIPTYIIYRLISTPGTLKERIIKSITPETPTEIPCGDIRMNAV
method description: Tested for the ability to displace [3H]- paroxetine binding in rat frontal cortex membrane against Serotonin transporter
Assay type: cell membranes

{"molecule": "CCC(=O)C1C(c2ccc(I)c(Cl)c2)CC2CCC1N2C (centres undefined)", "Ki (nM)": 1.14}
{"molecule": "CCC(=O)C1C2CCC(CC1c1ccc(/C=C(\\C)I)cc1)N2 (centres undefined)", "Ki (nM)": 0.57}
{"molecule": "CCC(=O)C1C2CCC(CC1c1ccc(I)c(Cl)c1)N2 (centres undefined)", "Ki (nM)": 1.08}
{"molecule": "CCC(=O)C1C2CCC(CC1c1ccc(/C=C(/C)I)cc1)N2 (centres undefined)", "Ki (nM)": 0.13}

* * *

target desc: Sodium-dependent serotonin transporter (Rattus norvegicus) (UniProt P31652)
method description: Ratio of serotonin transporter potency to that of dopamine transporter potency
Kind request: treat 0.3 as inclusive, so Ratio at 0.3 or higher is Condition met, anything lower is Condition not met.

{"compound": "CCC(=O)C1C(c2ccc(I)c(Cl)c2)CC2CCC1N2C (centres undefined)", "group": "Condition not met"}
{"compound": "CCC(=O)C1C(c2ccc(I)cc2)CC2CCC1N2C (centres undefined)", "group": "Condition met"}
{"compound": "CCC(=O)C1C2CCC(CC1c1ccc(I)c(F)c1)N2 (centres undefined)", "group": "Condition not met"}
{"compound": "CCC(=O)C1C2CCC(CC1c1ccc(/C=C(/C)I)cc1)N2 (centres undefined)", "group": "Condition met"}
{"compound": "CCC(=O)C1C2CCC(CC1c1ccc(/C=C(\\C)I)cc1)N2 (centres undefined)", "group": "Condition met"}
{"compound": "Cc1ccc(C2CC3CCC(C2C(=O)CC/C=C/I)N3C)cc1 (centres undefined)", "group": "Condition not met"}
{"compound": "CCC(=O)C1C2CCC(CC1c1ccc(I)cc1)N2 (centres undefined)", "group": "Condition met"}
{"compound": "CCC(=O)C1C2CCC(CC1c1ccc(/C=C/I)cc1)N2 (centres undefined)", "group": "Condition met"}
{"compound": "CCC(=O)C1C(c2ccc(-c3cccn3C)cc2)CC2CCC1N2C/C=C\\I (centres undefined)", "group": "Condition met"}
{"compound": "CCC(=O)C1C(c2ccc(I)c(F)c2)CC2CCC1N2C (centres undefined)", "group": "Condition not met"}
{"compound": "CCC(=O)C1C(c2cccc(I)c2)CC2CCC1N2C (centres undefined)", "group": "Condition met"}
{"compound": "CCC(=O)C1C2CCC(CC1c1cccc(I)c1)N2 (centres undefined)", "group": "Condition met"}
{"compound": "CCC(=O)C1C(c2ccc(-c3cccn3C)cc2)CC2CCC1N2C/C=C/I (centres undefined)", "group": "Condition met"}
{"compound": "CCC(=O)C1C2CCC(CC1c1ccc(I)c(Cl)c1)N2 (centres undefined)", "group": "Condition not met"}

* * *

target desc: Sodium-dependent dopamine transporter (Rattus norvegicus, UniProt P23977)
Sequence (P23977 whole entry): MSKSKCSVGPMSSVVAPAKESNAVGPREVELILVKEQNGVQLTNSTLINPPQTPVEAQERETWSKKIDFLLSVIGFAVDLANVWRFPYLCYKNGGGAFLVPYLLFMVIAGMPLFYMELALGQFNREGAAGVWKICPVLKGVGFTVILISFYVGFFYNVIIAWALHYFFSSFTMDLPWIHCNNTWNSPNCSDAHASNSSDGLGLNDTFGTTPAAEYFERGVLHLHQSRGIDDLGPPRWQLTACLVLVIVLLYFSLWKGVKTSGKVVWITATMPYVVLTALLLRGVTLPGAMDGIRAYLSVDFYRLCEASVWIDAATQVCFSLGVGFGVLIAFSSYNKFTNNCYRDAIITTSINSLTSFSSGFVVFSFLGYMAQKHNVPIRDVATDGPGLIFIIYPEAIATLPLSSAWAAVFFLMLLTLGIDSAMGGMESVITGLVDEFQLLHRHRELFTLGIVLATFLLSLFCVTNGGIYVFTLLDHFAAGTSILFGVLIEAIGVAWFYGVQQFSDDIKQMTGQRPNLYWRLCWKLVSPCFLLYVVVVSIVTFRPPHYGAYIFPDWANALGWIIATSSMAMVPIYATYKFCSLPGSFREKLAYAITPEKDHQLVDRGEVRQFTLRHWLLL
method description: Tested for the ability to displace [125I]- RTI-55 binding in rat striatal membrane against dopamine transporter
property: log10(IC50) (log10 of the value in nM)

{"molecule": "CCC(=O)C1C(c2ccc(-c3cccn3C)cc2)CC2CCC1N2C/C=C/I (stereo not given)", "target desc": "Sodium-dependent dopamine transporter (Rattus norvegicus, UniProt P23977)", "log10(IC50)": 2.88}
{"molecule": "Cc1ccc([C@H]2CC3CCC([C@H]2C(=O)C(C/C=C/I)C/C=C/I)N3C)cc1 (stereo not given in full)", "target desc": "Sodium-dependent dopamine transporter (Rattus norvegicus, UniProt P23977)", "log10(IC50)": 1.67}
{"molecule": "CCC(=O)C1C(c2ccc(-c3cccn3C)cc2)CC2CCC1N2C/C=C\\I (stereo not given)", "target desc": "Sodium-dependent dopamine transporter (Rattus norvegicus, UniProt P23977)", "log10(IC50)": 3.05}
{"molecule": "CCC(=O)C1C(c2cccc(I)c2)CC2CCC1N2C (stereo not given)", "target desc": "Sodium-dependent dopamine transporter (Rattus norvegicus, UniProt P23977)", "log10(IC50)": 1.75}
{"molecule": "CCC(=O)C1C2CCC(CC1c1ccc(/C=C/I)cc1)N2 (stereo not given)", "target desc": "Sodium-dependent dopamine transporter (Rattus norvegicus, UniProt P23977)", "log10(IC50)": 1.71}
{"molecule": "CCC(=O)C1C(c2ccc(I)c(F)c2)CC2CCC1N2C (stereo not given)", "target desc": "Sodium-dependent dopamine transporter (Rattus norvegicus, UniProt P23977)", "log10(IC50)": -0.42}
{"molecule": "CCC(=O)C1C2CCC(CC1c1cccc(I)c1)N2 (stereo not given)", "target desc": "Sodium-dependent dopamine transporter (Rattus norvegicus, UniProt P23977)", "log10(IC50)": 1.30}
{"molecule": "CCC(=O)C1C2CCC(CC1c1ccc(I)c(F)c1)N2 (stereo not given)", "target desc": "Sodium-dependent dopamine transporter (Rattus norvegicus, UniProt P23977)", "log10(IC50)": 0.03}
{"molecule": "CCC(=O)C1C2CCC(CC1c1ccc(/C=C(/C)I)cc1)N2 (stereo not given)", "target desc": "Sodium-dependent dopamine transporter (Rattus norvegicus, UniProt P23977)", "log10(IC50)": 1.82}
{"molecule": "CCC(=O)C1C2CCC(CC1c1ccc(/C=C(\\C)I)cc1)N2 (stereo not given)", "target desc": "Sodium-dependent dopamine transporter (Rattus norvegicus, UniProt P23977)", "log10(IC50)": 2.60}
{"molecule": "CCC(=O)C1C2CCC(CC1c1ccc(I)cc1)N2 (stereo not given)", "target desc": "Sodium-dependent dopamine transporter (Rattus norvegicus, UniProt P23977)", "log10(IC50)": 0.34}
{"molecule": "Cc1ccc(C2CC3CCC(C2C(=O)CC/C=C/I)N3C)cc1 (stereo not given)", "target desc": "Sodium-dependent dopamine transporter (Rattus norvegicus, UniProt P23977)", "log10(IC50)": 1.12}
{"molecule": "CCC(=O)C1C2CCC(CC1c1ccc(I)c(Cl)c1)N2 (stereo not given)", "target desc": "Sodium-dependent dopamine transporter (Rattus norvegicus, UniProt P23977)", "log10(IC50)": -1.07}
{"molecule": "CCC(=O)C1C(c2ccc(I)c(Cl)c2)CC2CCC1N2C (stereo not given)", "target desc": "Sodium-dependent dopamine transporter (Rattus norvegicus, UniProt P23977)", "log10(IC50)": -1.11}
{"molecule": "CCC(=O)C1C(c2ccc(I)cc2)CC2CCC1N2C (stereo not given)", "target desc": "Sodium-dependent dopamine transporter (Rattus norvegicus, UniProt P23977)", "log10(IC50)": 0.23}

* * *

target desc: Sodium-dependent serotonin transporter (Rattus norvegicus)
method description: Tested for the ability to displace [3H]- paroxetine binding in rat frontal cortex membrane against Serotonin transporter
Assay type: cell membranes
pKi: −log10 of the molar value.
property: pKi

{"compound": "CCC(=O)C1C2CCC(CC1c1ccc(I)c(F)c1)N2 (stereo unspecified)", "property": "pKi", "result qualifier": "=", "val": 8.14}
{"compound": "CCC(=O)C1C(c2ccc(I)cc2)CC2CCC1N2C (stereo unspecified)", "property": "pKi", "result qualifier": "=", "val": 8.73}
{"compound": "CCC(=O)C1C(c2ccc(-c3cccn3C)cc2)CC2CCC1N2C/C=C\\I (stereo unspecified)", "property": "pKi", "result qualifier": "=", "val": 7.88}
{"compound": "Cc1ccc([C@H]2CC3CCC([C@H]2C(=O)C(C/C=C/I)C/C=C/I)N3C)cc1 (stereo partly specified)", "property": "pKi", "result qualifier": "<", "val": 5.96}
{"compound": "CCC(=O)C1C(c2ccc(I)c(F)c2)CC2CCC1N2C (stereo unspecified)", "property": "pKi", "result qualifier": "=", "val": 8.04}
{"compound": "CCC(=O)C1C(c2cccc(I)c2)CC2CCC1N2C (stereo unspecified)", "property": "pKi", "result qualifier": "=", "val": 7.71}
{"compound": "CCC(=O)C1C2CCC(CC1c1cccc(I)c1)N2 (stereo unspecified)", "property": "pKi", "result qualifier": "=", "val": 7.80}
{"compound": "CCC(=O)C1C2CCC(CC1c1ccc(/C=C/I)cc1)N2 (stereo unspecified)", "property": "pKi", "result qualifier": "=", "val": 9.21}
{"compound": "Cc1ccc(C2CC3CCC(C2C(=O)CC/C=C/I)N3C)cc1 (stereo unspecified)", "property": "pKi", "result qualifier": "=", "val": 7.29}
{"compound": "CCC(=O)C1C(c2ccc(-c3cccn3C)cc2)CC2CCC1N2C/C=C/I (stereo unspecified)", "property": "pKi", "result qualifier": "=", "val": 8.55}
{"compound": "CCC(=O)C1C2CCC(CC1c1ccc(I)cc1)N2 (stereo unspecified)", "property": "pKi", "result qualifier": "=", "val": 8.61}
